ASSAY_TARGET: bZiPro (unlinked binary Zika virus NS2B-NS3 protease) (Zika virus, UniProt A0A024B7W1)
Construct: The viral protease consists of the N‐terminal third of the nonstructural protein NS3; the NS2B construct ends at Glu96; His6 (cleaved yes); made in house
Sequence (A0A024B7W1 1503-1680 limits assumed): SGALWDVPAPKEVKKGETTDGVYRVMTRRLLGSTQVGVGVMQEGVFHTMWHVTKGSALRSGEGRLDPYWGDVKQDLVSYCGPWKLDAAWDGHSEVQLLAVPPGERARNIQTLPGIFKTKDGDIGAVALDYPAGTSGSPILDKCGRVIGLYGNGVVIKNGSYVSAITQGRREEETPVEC
Sequence (A0A024B7W1 1425-1464 limits assumed): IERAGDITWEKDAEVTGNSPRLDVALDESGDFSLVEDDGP
EXPERIMENTAL_DETAILS: Enzyme kinetics with bZiPro, fluorogenic substrate Phac-Leu-Lys-Lys-Arg-AMC
Format: biochemical
APPLIED_CONDITIONS: K i bZiPro, mean±SD of at least three independent measurements; substrate 10 μM in assay, room temperature, pH 8.5
pKi: −log10 of the molar value. Starred links: 1 amine or outer side, 2 acyl side, 3 side chain; linkers in the order of their positions; H or OH if unused. Positions of bridges follow the written chain, without caps; N, C: chain ends. Non-standard residues stand in square brackets, D forms with d. Residues, ends and D or L forms follow the SMILES beside them. dεLys(Nα-amidino) = N=C(N)N[C@H](CCCCN[*:1])C(=O)[*:2]; NHCH2(1,3-C6H4)CH2CO = O=C(Cc1cccc(CN[*:1])c1)[*:2]
Think of 8 as a floor: if pKi stands on it or above, it is criterion met; beneath it, criterion not met.

Task: Is the recorded value of pKi equal to or greater than 8 for this compound? NCCCC[C@@H]1NC(=O)Cc2cccc(c2)CNC(=O)CNC(=O)[C@H](N)CCCCNC(=O)[C@H](CCCCN)NC1=O [Inhibitor 20] (H-[dK]G[NHCH2(1,3-C6H4)CH2CO]KK; lactam 1-C)
Result: criterion not met

Task: Entry N=C(N)N[C@@H]1CCCCNC(=O)[C@H](CCCCN)NC(=O)[C@H](CCCCN)NC(=O)Cc2cccc(c2)CNC(=O)[C@H]2CCCN2C1=O : is its pKi no less than 8?
Result: criterion not met

Task: Textbook exercise: given the entry C[C@@H]1NC(=O)[C@H](NC(=N)N)CCCCNC(=O)[C@H](CCCCN)NC(=O)[C@H](CCCCN)NC(=O)Cc2cccc(c2)CNC1=O , state whether its pKi is greater than or equal to 8.
Result: criterion not met

Task: Say whether N=C(N)N[C@H]1CCCNC(=O)[C@H](CCCCN)NC(=O)[C@H](CCCCN)NC(=O)Cc2ccc(cc2)CNC(=O)CCCNC1=O shows pKi of 8 or more.
Result: criterion not met

Task: Exam item: decide whether the reported pKi for N=C(N)N[C@@H]1CCCCNC(=O)[C@H](CCCCN)NC(=O)[C@H](CCCCN)NC(=O)CNC(=O)CNC(=O)CNC1=O [Inhibitor 25] (cyclo(GGGKK[dεLys(Nα-amidino)])) is at least 8.
Result: criterion met

====

ASSAY_TARGET: WNV NS2B-NS3 protease (WNV-Pro) (West Nile virus)
Construct: NS3 has to form a complex with its cofactor NS2B to achieve proteolytic activity; The viral protease consists of the N‐terminal third of the nonstructural protein NS3
EXPERIMENTAL_DETAILS: Enzyme kinetics with the covalent WNV NS2B-NS3 construct, substrate Phac-Leu-Lys-Lys-Arg-AMC
Type: biochemical
APPLIED_CONDITIONS: mean±SD of at least three independent measurements; substrate 100 μM in assay, room temperature, pH 8.5; read-out: K i WNV-Pro
pKi: −log10 of the molar value. Starred links: 1 amine or outer side, 2 acyl side, 3 side chain; linkers in the order of their positions; H or OH if unused. Non-standard residues stand in square brackets, D forms with d. Residues, ends and D or L forms follow the SMILES beside them. dεLys(Nα-amidino) = N=C(N)N[C@H](CCCCN[*:1])C(=O)[*:2]; βAla = NCCC(=O)O
Answer condition not met if pKi is under 6, and condition met if it is 6 or more.

Task: Determine whether this molecule has pKi no lower than 6: N=C(N)N[C@@H]1CCCCNC(=O)[C@H](CCCCN)NC(=O)[C@H](CCCCN)NC(=O)CNC(=O)CCNC(=O)CNC1=O [Inhibitor 27] (cyclo(G[βAla]GKK[dεLys(Nα-amidino)]))
Result: condition met

Task: Answer whether pKi of NCCCC[C@@H]1NC(=O)Cc2ccc(cc2)CNC(=O)CCCNC(=O)[C@H](N)CCCCNC(=O)[C@H](CCCCN)NC1=O [Inhibitor 6] is greater than or equal to 6.
Result: condition not met

Task: Could you verify whether the entry NCCCC[C@@H]1NC(=O)Cc2ccc(cc2)CNC(=O)CCCNC(=O)[C@H](N)CCCNC(=O)[C@H](CCCCN)NC1=O [Inhibitor 7] shows pKi of no less than 6?
Result: condition not met

Task: Can N=C(N)N[C@@H]1CCCCNC(=O)[C@H](CCCCN)NC(=O)[C@H](CCCCN)NC(=O)CCNC(=O)CNC(=O)CNC1=O [Inhibitor 26] (cyclo(GG[βAla]KK[dεLys(Nα-amidino)])) be said to have pKi at or above 6?
Result: condition met

====

ASSAY_TARGET: bZiPro (unlinked binary Zika virus NS2B-NS3 protease) (Zika virus)
Construct: The viral protease consists of the N‐terminal third of the nonstructural protein NS3; the NS2B construct ends at Glu96; His6 (cleaved yes); made in house
EXPERIMENTAL_DETAILS: Enzyme kinetics with bZiPro, fluorogenic substrate Phac-Leu-Lys-Lys-Arg-AMC
Type: biochemical
APPLIED_CONDITIONS: K i bZiPro, mean±SD of at least three independent measurements; substrate 10 μM in assay, room temperature, pH 8.5
Please go through the items and note down their pKi.
Friendly reminder that pKi comes from taking -log10 of the concentration in mol/L.

Task: What pKi value was documented for this compound, CC(=O)NCc1cccc(CC(=O)N[C@@H](CCCCN)C(=O)N[C@@H](CCCCN)C(=O)NCCCCCNC(=N)N)c1 ?
Result: 7.05

Task: Tell me the measured pKi of N=C(N)N[C@@H]1CCCCNC(=O)[C@H](CCCCN)NC(=O)[C@H](CCCCN)NC(=O)Cc2cccc(c2)CNC(=O)CNC1=O , please.
Result: 8.80

Task: Given CC(=O)NCc1cccc(CC(=O)N[C@@H](CCCCN)C(=O)N[C@@H](CCCCN)C(=O)NCCCC[C@@H](NC(=N)N)C(N)=O)c1 , state its recorded pKi.
Result: 8.02

Task: // returns reported pKi for input C[C@H]1NC(=O)[C@H](NC(=N)N)CCCCNC(=O)[C@H](CCCCN)NC(=O)[C@H](CCCCN)NC(=O)Cc2cccc(c2)CNC1=O
Result: 8.45

Task: Fill in: pKi of N=C(N)N[C@@H]1CCCCNC(=O)[C@H](CCCCN)NC(=O)[C@H](CCCCN)NC(=O)Cc2cccc(c2)NC(=O)CCCNC1=O is ___
Result: 6.97

Task: Record request: pKi value, item CC(C)[C@H]1NC(=O)[C@H](NC(=N)N)CCCCNC(=O)[C@H](CCCCN)NC(=O)[C@H](CCCCN)NC(=O)Cc2cccc(c2)CNC1=O
Result: 8.11

Task: pKi for N=C(N)N[C@@H]1CCCCNC(=O)[C@H](CCCCN)NC(=O)[C@H](CCCCN)NC(=O)Cc2cccc(c2)CNC(=O)CCNC1=O ?
Result: 8.41

Task: # input compound: N=C(N)N[C@@H]1CCCCNC(=O)[C@H](CCCCN)NC(=O)[C@H](CCCCN)NC(=O)Cc2cccc(c2)NC(=O)CNC1=O ; wanted: its pKi
Result: 5.85

Task: Which pKi is listed for CC(C)[C@@H]1NC(=O)[C@H](NC(=N)N)CCCCNC(=O)[C@H](CCCCN)NC(=O)[C@H](CCCCN)NC(=O)Cc2cccc(c2)CNC1=O ?
Result: 7.37

Task: Field request: pKi | item: N=C(N)N[C@@H]1CCCCNC(=O)[C@H](CCCCN)NC(=O)[C@H](CCCCN)NC(=O)Cc2ccc(cc2)CNC(=O)CCCNC1=O
Result: 7.15

Task: pKi lookup needed for N=C(N)N[C@@H]1CCCNC(=O)[C@H](CCCCN)NC(=O)[C@H](CCCCN)NC(=O)Cc2ccc(cc2)CNC(=O)CCCNC1=O , thanks.
Result: 5.44

Task: Entry under review: N=C(N)N[C@H](CCCCNC(=O)[C@H](CCCCN)NC(=O)[C@H](CCCCN)NC(=O)Cc1cccc(CNC(=O)CN)c1)C(=O)O . Reported pKi?
Result: 5.69

====

ASSAY_TARGET: WNV NS2B-NS3 protease (WNV-Pro) (West Nile virus, UniProt P06935)
Construct: NS3 has to form a complex with its cofactor NS2B to achieve proteolytic activity; The viral protease consists of the N‐terminal third of the nonstructural protein NS3
Sequence (P06935 1424-1463): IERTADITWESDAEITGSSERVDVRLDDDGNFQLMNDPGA
Sequence (P06935 1502-1679): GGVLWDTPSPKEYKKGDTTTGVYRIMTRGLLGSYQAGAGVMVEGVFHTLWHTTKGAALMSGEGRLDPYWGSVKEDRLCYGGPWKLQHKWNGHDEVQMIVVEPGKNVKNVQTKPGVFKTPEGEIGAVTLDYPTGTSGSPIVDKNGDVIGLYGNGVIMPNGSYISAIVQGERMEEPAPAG
EXPERIMENTAL_DETAILS: Enzyme kinetics with the covalent WNV NS2B-NS3 construct, substrate Phac-Leu-Lys-Lys-Arg-AMC
Type: biochemical
pKi: −log10 of the molar value. Starred links: 1 amine or outer side, 2 acyl side, 3 side chain; linkers in the order of their positions; H or OH if unused. Positions of bridges follow the written chain, without caps; N, C: chain ends. Non-standard residues stand in square brackets, D forms with d. Residues, ends and D or L forms follow the SMILES beside them. NHCH2(1,3-C6H4)CH2CO = O=C(Cc1cccc(CN[*:1])c1)[*:2]
# cutoff 5 applies to pKi; >= gives label 1, < gives label 0

Task: Given N=C(N)N[C@H](CCCCNC(=O)[C@H](CCCCN)NC(=O)[C@H](CCCCN)NC(=O)Cc1cccc(CNC(=O)CN)c1)C(N)=O , state whether its pKi is at least 5.
Result: label 1

Task: Evaluate N=C(N)N[C@H]1CCCNC(=O)[C@H](CCCCN)NC(=O)[C@H](CCCCN)NC(=O)Cc2ccc(cc2)CNC(=O)CCCNC1=O : pKi at minimum 5?
Result: label 0

Task: Decide: is the reported value of pKi for N=C(N)N[C@@H]1CCCCNC(=O)[C@H](CCCCN)NC(=O)[C@H](CCCCN)NC(=O)Cc2cccc(c2)NC(=O)CNC1=O equal to or greater than 5?
Result: label 0

Task: # bool: pKi of CC(=O)NCc1cccc(CC(=O)N[C@@H](CCCCN)C(=O)N[C@@H](CCCCN)C(=O)NCCCC[C@@H](NC(=N)N)C(N)=O)c1 >= 5
Result: label 1

Task: Hi, just wondering whether NCCCC[C@@H]1NC(=O)Cc2cccc(c2)CNC(=O)CNC(=O)[C@H](N)CCCCNC(=O)[C@H](CCCCN)NC1=O [Inhibitor 20] (H-[dK]G[NHCH2(1,3-C6H4)CH2CO]KK; lactam 1-C) shows pKi of 5 or higher.
Result: label 0

Task: Confirm if pKi reported for the molecule N=C(N)N[C@@H]1CCCCNC(=O)[C@H](CCCCN)NC(=O)[C@H](CCCCN)NC(=O)Cc2cccc(c2)CNC(=O)CCCNC1=O is 5 or above.
Result: label 1

Task: I'd appreciate it if you could say whether N=C(N)N[C@@H]1CCCCNC(=O)[C@H](CCCCN)NC(=O)[C@H](CCCCN)NC(=O)Cc2cccc(c2)NC(=O)CCNC1=O has pKi at least equal to 5.
Result: label 1

Task: Please indicate if the recorded pKi for CC(=O)NCc1cccc(CC(=O)N[C@@H](CCCCN)C(=O)N[C@@H](CCCCN)C(=O)NCCCCCNC(=N)N)c1 meets or exceeds 5.
Result: label 1

Task: In plain terms: is recorded pKi at least 5 for N=C(N)N[C@@H]1CCCCNC(=O)[C@H](CCCCN)NC(=O)[C@H](CCCCN)NC(=O)Cc2cccc(c2)CNC(=O)CCNC1=O ?
Result: label 1

Task: # bool: pKi of NCCCC[C@@H]1NC(=O)Cc2cccc(c2)CNC(=O)CNC(=O)[C@H](NC(N)=O)CCCCNC(=O)[C@H](CCCCN)NC1=O >= 5
Result: label 0

Task: Reported pKi reaches at least 5 for CC(C)[C@@H]1NC(=O)[C@H](NC(=N)N)CCCCNC(=O)[C@H](CCCCN)NC(=O)[C@H](CCCCN)NC(=O)Cc2cccc(c2)CNC1=O ?
Result: label 1
